Values of pIC50 for DGKζ (Homo sapiens), collected from a number of published sources:
pIC50: −log10 of the molar value.

Use these answered entries as a reference point.
{"molecule": "Cn1c(=O)nc(N2CCC3(CC2)CC(c2cccc(C(F)(F)F)c2)=NO3)c2nc(C#N)ccc21", "result_value": "> 7.00"}
{"molecule": "CC[C@H]1CN([C@H](c2ccc(SC(F)(F)F)cc2)c2nc(C3CC3)cs2)[C@H](CC)CN1c1nc(=O)n(C)c2ccc(C#N)nc12", "result_value": "6.00 to 7.00"}
{"molecule": "CC[C@H]1CN([C@@H](c2ccc(S(F)(F)(F)(F)F)cc2)C2CC2)[C@H](CC)CN1c1nc(=O)n(C)c2ccc(C#N)nc12 (stereo in doubt)", "result_value": 6.21}

Q. Short answer please: pIC50, DGKζ (Homo sapiens), entry CC[C@H]1CN(C(C)c2ccc(CN(C)C)cc2)[C@H](CC)CN1c1cc(=O)n(C)c2cn(CC#N)nc12 (stereo partly drawn)
A. 5.32

Q. Request: pIC50, test system DGKζ (Homo sapiens), entry CC[C@H]1CN([C@@H](C)c2ccc(S(F)(F)(F)(F)F)cc2)[C@H](CC)CN1c1nc(=O)n(C)c2ccc(C#N)nc12 (stereo in doubt)
A. 6.00 to 7.00

Q. Any idea what pIC50 came out for Cc1nc2c(N3C[C@@H](C)N(C(c4ccc(C(F)(F)F)cc4)C4CC(F)(F)C4)C[C@@H]3C)nc3nncn3c2n1C[C@@H]1CCCO1 (single isomer, unassigned) on DGKζ (Homo sapiens)?
A. ≥ 7.70
